// values below are MIC; system is Staphlococcus aureus H 228
Write the answer as a number in µg/mL, unit excluded.

See these solved cases before continuing.
CCNCC1CCN(c2c(F)c(F)c3c(=O)c(C(=O)O)cn(C4CC4)c3c2F)C1 (centres unmarked) | 0.2
CCn1cc(C(=O)O)c(=O)c2c(F)c(F)c(N3CCC(CN)C3)c(F)c21 (centres unmarked) | 1.6
CCn1cc(C(=O)O)c(=O)c2c(F)c(F)c(N3CCC(CNC)C3)c(F)c21 (centres unmarked) | 0.8
CCNCC1CCN(c2c(F)c(F)c3c(=O)c(C(=O)O)cn(CC)c3c2F)C1 (centres unmarked) | 0.4

Tell me the measured MIC of CCn1cc(C(=O)O)c(=O)c2c(F)c(F)c(N3CCC4(CCN(C)C4)C3)c(F)c21 (centres unmarked) , please.
0.8
